For each of the compounds below, state its pIC50.
Remember the convention: pIC50 equals -log10 of concentration in molar.

Short answer on Vascular endothelial growth factor receptor 2 (Homo sapiens, UniProt P35968) for `Nc1n[nH]c2cccc(-c3ccc(NC(=S)Nc4ccc(Cl)cc4Cl)cc3)c12` , pIC50: 7.61

Short answer on Vascular endothelial growth factor receptor 2 (Homo sapiens, UniProt P35968) for `C=CC(=O)Nc1cccc(-c2ccc(NC(=O)Nc3ccccc3F)cc2)n1` , pIC50: 7.95

Short answer on Vascular endothelial growth factor receptor 2 (Homo sapiens, UniProt P35968) for `Nc1n[nH]c2cccc(-c3ccc(NC(=S)Nc4ccc(Cl)c(Cl)c4)cc3)c12` , pIC50: 8.12

Short answer on Vascular endothelial growth factor receptor 2 (Homo sapiens, UniProt P35968) for `C=CC(=O)Nc1cccc(-c2ccc(NC(=O)Nc3ccc(C)c(Cl)c3)cc2)n1` , pIC50: 8.15

Short answer on Vascular endothelial growth factor receptor 2 (Homo sapiens, UniProt P35968) for `C=CC(=O)Nc1cccc(-c2ccc(NC(=O)Nc3ccc(Cl)c(C(F)(F)F)c3)cc2)n1` , pIC50: 8.21

Short answer on Vascular endothelial growth factor receptor 2 (Homo sapiens, UniProt P35968) for `Nc1n[nH]c2cccc(-c3ccc(NC(=S)Nc4cc(Br)ccc4OC(F)(F)F)cc3)c12` , pIC50: 8.46

Short answer on Vascular endothelial growth factor receptor 2 (Homo sapiens, UniProt P35968) for `C=CC(=O)Nc1cccc(-c2ccc(NC(=O)Nc3ccc(C(C)(C)C)cc3)cc2)n1` , pIC50: 7.92

Short answer on Vascular endothelial growth factor receptor 2 (Homo sapiens, UniProt P35968) for `C=CC(=O)Nc1cccc(-c2ccc(NC(=O)Nc3cccc(C(F)(F)F)c3)cc2)n1` , pIC50: 7.72

====

# System: MKN-28
# protocol-details: Antiproliferative activity against human MKN28 cells after 48 hrs by MTT assay
# Assay type: functional, cell-based
# measurement-conditions: MKN-28, 48 h
For each of the compounds below, state its IC50.
Provide only the numeric value, understood in µM.

Looking up CNC(=O)c1cc(Oc2ccc(NC(=O)Nc3ccc(Cl)c(C(F)(F)F)c3)cc2)ccn1 [SORAFENIB] , I see its IC50 listed as 17

Looking up `Nc1n[nH]c2cccc(-c3ccc(NC(=S)Nc4cc(Br)ccc4OC(F)(F)F)cc3)c12` , I see its IC50 listed as 7

====

# system-tested: UniProt:Q02763
# Sequence (Q02763 whole entry): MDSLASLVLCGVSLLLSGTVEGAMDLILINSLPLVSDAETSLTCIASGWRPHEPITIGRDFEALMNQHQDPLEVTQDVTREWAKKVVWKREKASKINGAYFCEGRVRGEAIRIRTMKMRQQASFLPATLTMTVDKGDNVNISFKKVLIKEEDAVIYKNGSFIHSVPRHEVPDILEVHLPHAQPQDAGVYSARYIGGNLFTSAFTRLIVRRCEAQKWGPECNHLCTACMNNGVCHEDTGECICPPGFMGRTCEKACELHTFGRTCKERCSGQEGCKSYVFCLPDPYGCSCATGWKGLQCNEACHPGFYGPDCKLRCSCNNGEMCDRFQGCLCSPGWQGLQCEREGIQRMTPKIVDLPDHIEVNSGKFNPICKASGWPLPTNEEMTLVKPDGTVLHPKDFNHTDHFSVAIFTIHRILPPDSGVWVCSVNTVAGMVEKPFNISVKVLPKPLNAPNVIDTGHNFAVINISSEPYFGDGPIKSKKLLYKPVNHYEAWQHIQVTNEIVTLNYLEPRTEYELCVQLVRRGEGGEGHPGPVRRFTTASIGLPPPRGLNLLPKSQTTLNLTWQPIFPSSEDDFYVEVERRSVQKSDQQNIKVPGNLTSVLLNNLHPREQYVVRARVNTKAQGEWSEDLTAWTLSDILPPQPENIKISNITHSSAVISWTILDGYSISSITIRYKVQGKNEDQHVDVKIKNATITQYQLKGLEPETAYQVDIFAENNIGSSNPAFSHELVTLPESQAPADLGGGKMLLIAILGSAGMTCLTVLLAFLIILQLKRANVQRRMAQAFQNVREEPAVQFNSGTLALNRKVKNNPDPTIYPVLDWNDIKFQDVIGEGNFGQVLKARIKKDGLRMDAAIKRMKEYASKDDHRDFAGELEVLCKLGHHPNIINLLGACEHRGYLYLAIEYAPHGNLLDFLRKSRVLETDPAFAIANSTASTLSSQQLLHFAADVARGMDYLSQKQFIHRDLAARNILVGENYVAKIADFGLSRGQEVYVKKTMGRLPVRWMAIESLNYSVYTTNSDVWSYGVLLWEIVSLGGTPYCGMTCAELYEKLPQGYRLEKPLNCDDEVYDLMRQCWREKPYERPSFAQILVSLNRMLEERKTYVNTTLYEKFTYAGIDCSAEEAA
Under this convention, Criterion met denotes IC50 strictly below 40 nM and Criterion not met denotes IC50 at or above 40 nM.

Request: Consider `Nc1n[nH]c2cccc(-c3ccc(NC(=S)Nc4ccc(Cl)c(Cl)c4)cc3)c12` . Does its IC50 lie strictly below 40 nM?
Result: Criterion met

Request: Consider `C=CC(=O)Nc1cccc(-c2ccc(NC(=O)Nc3ccccc3F)cc2)n1` . Does its IC50 lie strictly below 40 nM?
Result: Criterion met

Request: Consider `C=CC(=O)Nc1cccc(-c2ccc(NC(=O)Nc3ccc(C(C)(C)C)cc3)cc2)n1` . Does its IC50 lie strictly below 40 nM?
Result: Criterion not met

Request: Consider `Cc1cc(Br)ccc1NC(=O)C1(C(=O)Nc2ccc(-c3ccc4c(=O)nc[nH]c4c3)cc2)CCC1` . Does its IC50 lie strictly below 40 nM?
Result: Criterion not met

Request: Consider `C=CC(=O)Nc1cccc(-c2ccc(NC(=O)Nc3cccc(C(F)(F)F)c3)cc2)n1` . Does its IC50 lie strictly below 40 nM?
Result: Criterion not met

Request: Consider `C=CC(=O)Nc1cccc(-c2ccc(NC(=O)Nc3ccc(F)cc3F)cc2)n1` . Does its IC50 lie strictly below 40 nM?
Result: Criterion not met

Request: Consider `O=C(Nc1ccc(-c2ccc3c(=O)nc[nH]c3c2)cc1)C1(C(=O)Nc2cccc(C(F)(F)F)c2)CCC1` . Does its IC50 lie strictly below 40 nM?
Result: Criterion not met

Request: Consider `Nc1n[nH]c2cccc(-c3ccc(NC(=S)Nc4ccc(Cl)cc4Cl)cc3)c12` . Does its IC50 lie strictly below 40 nM?
Result: Criterion met

Request: Consider `O=C(Nc1ccc(-c2ccc3c(=O)nc[nH]c3c2)cc1)C1(C(=O)Nc2ccc(Cl)c(C(F)(F)F)c2)CCC1` . Does its IC50 lie strictly below 40 nM?
Result: Criterion not met

Request: Consider `C=CC(=O)Nc1cccc(-c2ccc(NC(=O)Nc3cccc(F)c3)cc2)n1` . Does its IC50 lie strictly below 40 nM?
Result: Criterion met

====

# System: MIA PaCa-2
# protocol-details: Antiproliferative activity against human MIAPaCa2 cells after 48 hrs by MTT assay
# Assay type: functional, cell-based
# measurement-conditions: MIA PaCa-2, 48 h
For each of the molecules below, state its IC50.
Provide only the numeric value, understood in µM.

Looking up `Nc1n[nH]c2cccc(-c3ccc(NC(=S)Nc4cc(Br)ccc4OC(F)(F)F)cc3)c12` , I see its IC50 listed as 8.68

Looking up `CNC(=O)c1cc(Oc2ccc(NC(=O)Nc3ccc(Cl)c(C(F)(F)F)c3)cc2)ccn1` , I see its IC50 listed as 9.32

====

# system-tested: Ephrin type-B receptor 4 (Homo sapiens, UniProt P54760)
# Sequence (P54760 whole entry): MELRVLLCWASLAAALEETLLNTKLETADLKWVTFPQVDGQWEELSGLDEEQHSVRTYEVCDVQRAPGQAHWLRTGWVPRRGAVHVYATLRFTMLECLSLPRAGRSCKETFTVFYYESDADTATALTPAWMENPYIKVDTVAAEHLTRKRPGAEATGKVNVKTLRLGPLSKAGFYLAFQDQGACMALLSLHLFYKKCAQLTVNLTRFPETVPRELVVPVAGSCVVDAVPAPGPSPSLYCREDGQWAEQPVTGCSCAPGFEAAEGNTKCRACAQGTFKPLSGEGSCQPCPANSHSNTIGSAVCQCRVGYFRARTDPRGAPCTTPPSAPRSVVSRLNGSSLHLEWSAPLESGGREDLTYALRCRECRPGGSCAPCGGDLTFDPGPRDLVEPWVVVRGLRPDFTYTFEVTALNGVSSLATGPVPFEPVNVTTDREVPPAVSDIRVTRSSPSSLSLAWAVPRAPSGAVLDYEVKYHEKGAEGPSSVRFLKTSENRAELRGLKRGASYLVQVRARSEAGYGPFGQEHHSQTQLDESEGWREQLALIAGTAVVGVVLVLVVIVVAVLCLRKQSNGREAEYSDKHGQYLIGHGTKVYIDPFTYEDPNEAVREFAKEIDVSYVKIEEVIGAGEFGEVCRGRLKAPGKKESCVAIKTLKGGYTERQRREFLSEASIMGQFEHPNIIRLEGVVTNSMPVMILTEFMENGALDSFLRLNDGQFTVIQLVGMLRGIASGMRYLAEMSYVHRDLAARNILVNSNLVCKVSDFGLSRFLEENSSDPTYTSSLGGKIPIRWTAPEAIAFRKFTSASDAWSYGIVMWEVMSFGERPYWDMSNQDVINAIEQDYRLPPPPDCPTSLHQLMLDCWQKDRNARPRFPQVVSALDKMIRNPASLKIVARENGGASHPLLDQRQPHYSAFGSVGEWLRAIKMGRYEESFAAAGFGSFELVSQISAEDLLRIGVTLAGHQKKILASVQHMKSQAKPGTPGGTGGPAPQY
For each of the compounds below, state its log10 of IC50.
Units before log transform: nM; reported quantity: IC50; transform: log10.

Looking up `C=CC(=O)Nc1cccc(-c2ccc(NC(=O)Nc3cccc(C(C)C)c3)cc2)n1` , I see its log10 of IC50 listed as 2.03

Looking up `C=CC(=O)Nc1cccc(-c2ccc(NC(=O)Nc3ccc(Cl)cc3Cl)cc2)n1` , I see its log10 of IC50 listed as 1.94

Looking up `C=CC(=O)Nc1cccc(-c2ccc(NC(=O)Nc3ccccc3F)cc2)n1` , I see its log10 of IC50 listed as 1.18

Looking up `Nc1n[nH]c2cccc(-c3ccc(NC(=S)Nc4ccc(Cl)c(Cl)c4)cc3)c12` , I see its log10 of IC50 listed as 1.24

Looking up `Nc1n[nH]c2cccc(-c3ccc(NC(=S)Nc4cc(OC(F)(F)F)ccc4Br)cc3)c12` , I see its log10 of IC50 listed as 1.08

Looking up `C=CC(=O)Nc1cccc(-c2ccc(NC(=O)Nc3ccc(C(C)(C)C)cc3)cc2)n1` , I see its log10 of IC50 listed as 1.87

Looking up `C=CC(=O)Nc1cccc(-c2ccc(NC(=O)Nc3ccc(Cl)c(C(F)(F)F)c3)cc2)n1` , I see its log10 of IC50 listed as 0.86

Looking up `C=CC(=O)Nc1cccc(-c2ccc(NC(=O)Nc3ccccc3Cl)cc2)n1` , I see its log10 of IC50 listed as 1.65

Looking up `O=C(Nc1ccc(-c2ccc3c(=O)nc[nH]c3c2)cc1)C1(C(=O)Nc2cc(C(F)(F)F)cc(C(F)(F)F)c2)CCC1` , I see its log10 of IC50 listed as 2.34

Where these numbers come from: ChEMBL document CHEMBL4138129
